# Assayed system: T1, human OX40 on cells (CHO-hOX40, 293HEK-hOX40, Jurkat-hOX40, activated primary CD4+ T cells) (human, UniProt P43489 29-277)
# T1 construct: whole, on cells; The cell type is told in each assay; also called CHO-OX40
# T1 sequence (looked up): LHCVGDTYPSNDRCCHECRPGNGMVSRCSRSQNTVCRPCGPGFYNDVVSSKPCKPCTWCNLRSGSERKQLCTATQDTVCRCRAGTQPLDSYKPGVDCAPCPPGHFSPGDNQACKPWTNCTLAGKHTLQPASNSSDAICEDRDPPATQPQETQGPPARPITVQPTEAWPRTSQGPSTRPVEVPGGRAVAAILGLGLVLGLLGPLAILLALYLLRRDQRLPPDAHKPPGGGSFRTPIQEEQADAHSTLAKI
# Experimental protocol: flow cytometry, 293HEK-hOX40, 40 nM
Readout label: MFI
Be sure to follow the number with its unit.

Can you look up the measured MFI of ADI-20066, IgG1 format (antibody, V domains shown, Made in yeast) VH: QLQLQESGPGLVKPSETLSLTCTVSGGSISSSSYYWGWIRQPPGKGLEWIGSIYYSGSTYYNPSLKSRVTISVDTSKNQFSLKLSSVTAADTAVYYCARDPGYSASPNWFDPWGQGTLVTVSS VL: EIVLTQSPGTLSLSPGERATLSCRASQSVSSSFLAWYQQKPGQAPRLLIYGASSRATGIPDRFSGSGSGTDFTLTISRLEPEDFAVYYCQQYDVFPITFGGGTKVEIKR for me?
2.39e+06 MFI
